Assignment: determine reported pKi for the given molecules.
- measurement.description: Mixed type inhibition of Sporosarcina pasteurii CCM 2056 urease using urea as substrate preincubated for 2 hrs by indophenol blue detection based phenol-hypochlorite method
In textbook form, pKi equals minus log to base ten of the concentration in mol/L.

query: What pKi value was documented for this molecule, COc1ccc(/C=C(\CCCP(=O)(O)O)C(=O)O)cc1 ?
result: 5.47

query: Next molecule up: COC(=O)/C(=C/c1ccc(C)cc1)CCCCP(=O)(O)O
result: 3.66

query: Now the molecule COC(=O)/C(=C/c1ccc(C)cc1)CCCP(=O)(O)O
result: 3.64

query: Would you mind doing COC(=O)/C(=C/c1ccccc1)CCCCP(=O)(O)O as well?
result: 4.30

query: Same for O=C(O)/C(=C/c1ccc(F)cc1)CCCP(=O)(O)O
result: 5.74

query: Do the same for O=C(O)/C(=C/c1ccc(Cl)cc1)CCCP(=O)(O)O please
result: 5.84

query: # iterate: COC(=O)/C(=C/c1ccc(Cl)cc1)CCCP(=O)(O)O
result: 4.37

query: And then O=C(O)/C(=C/c1ccc(F)cc1)CCCCP(=O)(O)O , what is it?
result: 5.59

The origin of these recorded values is ChEMBL document CHEMBL4265986.
